The reported numbers originate from patent US20240025918A1.

Molecular target: GDP-loaded HIS-KRAS(G12D, aa 1-169) (Homo sapiens, UniProt P01116, G12D)
Construct: GDP-loaded HIS-KRAS(G12D, aa 1-169)
Sequence (P01116 1-169 isoform P01116-2 G12D): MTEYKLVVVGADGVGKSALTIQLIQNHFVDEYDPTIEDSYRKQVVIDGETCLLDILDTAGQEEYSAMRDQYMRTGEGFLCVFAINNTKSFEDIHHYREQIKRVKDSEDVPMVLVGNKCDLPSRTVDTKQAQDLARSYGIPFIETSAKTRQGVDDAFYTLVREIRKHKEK
Assay: SOS1 catalyzed nucleotide exchange assay (TR-FRET)
Settings: 4 hours at 25° C.
Procedure: GDP-loaded HIS-KRAS(G12D, aa 1-169) was pre-incubated with a compound in the presence of 10 nM GDPin a 384-well plate (Greiner) for 15 min, then purified SOS1 ExD(Flag tag, aa 564-1049), BODIPY™ FL GTP (Invitrogen) and MAb (monoclonal antibody) Anti 6HIS-Tb cryptate Gold (Cisbio) were added to the assay wells (Final concentration: 1.5 nM GDP-loaded HIS-KRAS(G12D), 5 nM GDP, 0.5 μM SOS1 ExD, 80 nM BODIPY™ FL GTP, 52.5 ng/mL MAb Anti 6HIS-Tb cryptate Gold) and incubated for 4 hours at 25° C. […]
result-type: IC50 (nM)
Give just the number in nM; leave the unit off.

Guide cases for IC50, answers given:
The recorded IC50 for `C#Cc1cccc2cc(O)cc(-c3c(F)cc4c(N5CC6CCC(C5)N6)nc(OCC5(CN6Cc7cccnc7C6)CC5)nc4c3F)c12` is 1.99

The recorded IC50 for `C#Cc1cccc2cc(O)cc(-c3c(F)cc4c(N5CC6CCC(C5)N6)nc(OCC5(CN6CCC7(CC6)COC7)CC5)nc4c3F)c12` is 14.2

The recorded IC50 for `C#Cc1cccc2cc(O)cc(-c3c(F)cc4c(N5CC6CCC(C5)N6)nc(OCC5(CN6CC7(CCO7)C6)CC5)nc4c3F)c12` is 2.05

Continuing:
The recorded IC50 for `C#Cc1cccc2cc(O)cc(-c3c(F)cc4c(N5CC6CCC(C5)N6)nc(OCC5(CN6CC7(CC(OC)C7)C6)CC5)nc4c3F)c12` is 3.95

The recorded IC50 for `C#Cc1cccc2cc(O)cc(-c3ccc4c(N5CC6CCC(C5)N6)nc(OCC5(CN6CC(C)(OC)C6)CC5)nc4c3F)c12` is 31.6

---

Molecular target: GppNp-loaded HIS-KRAS(G12D, aa 1-169) and cRAF RBD (Homo sapiens, UniProt P01116, G12D)
Construct: GppNp-loaded HIS-KRAS(G12D, aa 1-169)
Sequence (P01116 1-169 isoform P01116-2 G12D): as above
Assay: GTP-KRAS and cRAF interaction assay (HTRF)
Details: 2 hours at 25° C.
Protocol: GppNp-loaded HIS-KRAS(G12D, aa 1-169) was pre-incubated with a compound in the presence of 200 μM GTP in a 384-well plate (Greiner) for 15 min, then cRAF RBD(GST tag, aa 50-132, CreativeBioMart), MAb Anti GST-d2 (Cisbio) and MAb Anti 6HIS-Tb cryptate Gold (Cisbio) were added to the assay wells (Final concentration: 2.0 nM GppNp-loaded HIS-KRAS(G12D), 100 μM GTP, 35 nM cRAF RBD, 1 μg/mL MAb Anti GST-d2, 52.5 ng/mL MAb Anti 6HIS-Tb cryptate Gold) and incubated for 2 hours at 25° C. […]
pIC50: −log10 of the molar value.
Please mark satisfied if the recorded pIC50 is equal to or greater than 7, and not satisfied if it falls below.

Known results for molecules:
Does the molecule `CCc1c(F)ccc2cc(O)cc(-c3c(C(F)(F)F)cc4c(N5CC6CCC(C5)N6)nc(OCC5(CN6C[C@@H]7C[C@H]6CO7)CC5)nc4c3F)c12` have recorded pIC50 that is 7 or more?
not satisfied

Does the molecule `C#Cc1cccc2cc(O)cc(-c3c(F)cc4c(N5CC6CCC(C5)N6)nc(OCC5(CN6CC7(CCO7)C6)CC5)nc4c3F)c12` have recorded pIC50 that is 7 or more?
satisfied

Does the molecule `C#Cc1c(F)ccc2cc(O)cc(-c3ccc4c(N5CC6CCC(C5)N6)nc(OCC5(CN6C7CCC6COC7)CC5)nc4c3F)c12` have recorded pIC50 that is 7 or more?
satisfied

Does the molecule C#Cc1cccc2cc(O)cc(-c3c(F)cc4c(N5CC6CCC(C5)N6)nc(OCC5(CN6CC7COCC7C6)CC5)nc4c3F)c12 (stereo not drawn) have recorded pIC50 that is 7 or more?
satisfied

Does the molecule C#Cc1c(F)ccc2cc(O)cc(-c3c(Cl)cc4c(N5CC6CCC(C5)N6)nc(OCC5(CN6CC7CC6CO7)CC5)nc4c3F)c12 (single isomer, unassigned) [Compound 4A] have recorded pIC50 that is 7 or more?
not satisfied

Continuing:
Does the molecule C#Cc1cccc2cc(O)cc(-c3c(F)cc4c(N5CC6CCC(C5)N6)nc(OCC5(CN6CCOC7(CC7)C6)CC5)nc4c3F)c12 [Compound 2] have recorded pIC50 that is 7 or more?
not satisfied

Does the molecule `C#Cc1cccc2cc(O)cc(-c3c(F)cc4c(N5CC6CCC(C5)N6)nc(OCC5(CN6C7CCC6CC(=O)C7)CC5)nc4c3F)c12` have recorded pIC50 that is 7 or more?
satisfied

Does the molecule C#Cc1cccc2cc(O)cc(-c3c(F)cc4c(N5CC6CCC(C5)N6)nc(OCC5(CN6CC7CC6CO7)CC5)nc4c3F)c12 (single isomer, unassigned) [Compound 36A] have recorded pIC50 that is 7 or more?
satisfied

Does the molecule `C#Cc1cccc2cc(O)cc(-c3ccc4c(N5CC6CCC(C5)N6)nc(OCC5(CN6CC7CCC(C6)O7)CC5)nc4c3F)c12` have recorded pIC50 that is 7 or more?
not satisfied
